# testedOn: T1, biotinylated hTfR1 (Acro Bio p/n TFR-H82E5) (human, UniProt P02786 89-760, biotinylated; site not stated)
# T1 construct: Bought reagent of the BLI assay
# test: BLI, Octet RH16, biotinylated TfR1 on streptavidin sensor; Fab-siRNA conjugate
# Description: Samples were analyzed via Bio-Layer Interferometry (BLI) to determine kinetics against human transferrin receptor 1 (hTfR1). Briefly, an Octet RH16 (Sartorius) was used for BLI measurements using streptavidin biosensors (Sartorius p/n 18-5019) to irreversibly immobilize biotinylated hTfR1 (Acro Bio p/n TFR-H82E5). […] Sample results are analyzed in Octet Analysis software.
Would you kindly list kon for each of these binders?
# number only, unit M⁻¹ s⁻¹ dropped from output

[in] Supply recorded kon for Fab0002-siRNA conjugate (Fab, V domains shown, siRNA-linker on a reduced cysteine; chain and residue not stated, also called Fab0002 (BLI conjugate columns)) VH: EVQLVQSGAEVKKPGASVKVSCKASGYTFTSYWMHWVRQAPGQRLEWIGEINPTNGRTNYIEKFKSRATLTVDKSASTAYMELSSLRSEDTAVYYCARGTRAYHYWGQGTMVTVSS VL: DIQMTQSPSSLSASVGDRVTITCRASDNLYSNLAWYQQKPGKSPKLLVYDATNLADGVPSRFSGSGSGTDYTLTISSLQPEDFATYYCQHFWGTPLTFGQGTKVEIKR here.
[out] 209000

[in] Supply recorded kon for Fab0064-siRNA conjugate (Fab, V domains shown, siRNA-linker on a reduced cysteine; chain and residue not stated, also called Fab0064 (BLI conjugate columns)) VH: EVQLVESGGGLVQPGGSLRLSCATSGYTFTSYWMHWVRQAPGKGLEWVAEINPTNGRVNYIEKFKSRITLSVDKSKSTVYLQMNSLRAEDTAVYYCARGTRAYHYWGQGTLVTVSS VL: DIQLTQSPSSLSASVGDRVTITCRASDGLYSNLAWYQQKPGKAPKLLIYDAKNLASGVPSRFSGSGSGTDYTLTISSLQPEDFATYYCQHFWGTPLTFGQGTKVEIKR here.
[out] 273000

[in] Supply recorded kon for Fab0066-siRNA conjugate (Fab, V domains shown, siRNA-linker on a reduced cysteine; chain and residue not stated, also called Fab0066 (BLI conjugate columns)) VH: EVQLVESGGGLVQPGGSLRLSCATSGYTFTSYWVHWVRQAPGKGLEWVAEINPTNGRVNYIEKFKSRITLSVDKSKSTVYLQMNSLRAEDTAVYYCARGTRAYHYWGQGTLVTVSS VL: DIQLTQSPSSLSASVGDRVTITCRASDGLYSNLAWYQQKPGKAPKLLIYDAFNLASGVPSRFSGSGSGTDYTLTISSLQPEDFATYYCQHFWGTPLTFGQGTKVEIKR here.
[out] 259000
